Test system: S. aureus ATCC 25923
Assay: MIC by serial dilutions in broth (visible growth);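 also: broth tubes inoculated at about 5×10^5 CFU/ml, incubated 16-24 h at 35 °C in air, growth judged by transmitted light against an unexposed refrigerated inoculum tube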
Type: cell-based
Details: ^64Zne 0.046 mcg/ml
Value Kind: visible growth

[[record]]
compound = "NC(CCC(=O)[O-])C(=O)[O-].[64Zn+2] (stereo not shown) [^64Zne glutamate]"
val = "−"

[[record]]
compound = "O=S(=O)([O-])[O-].[64Zn+2] [^64Zne sulfate]"
val = "+"

[[record]]
compound = "NC(CC(=O)O)C(=O)O (stereo not shown) [^64Zne aspartate]"
val = "−"

[[record]]
compound = "O=C([O-])CC(NCCNC(CC(=O)O)C(=O)O)C(=O)[O-].[64Zn+2] (stereo not shown)"
val = "+"


###

Tested on: E. coli ATCC 25922
Test: MIC by serial dilutions in broth (visible growth)
Type: cell-based
Conditions: ^64Zne 0.73 mcg/ml
Value Kind: visible growth

[[record]]
molecule = "NC(CCC(=O)[O-])C(=O)[O-].[64Zn+2] (stereo not shown) [^64Zne glutamate]"
value_kind = "visible growth"
val = "−"

[[record]]
molecule = "NC(CC(=O)O)C(=O)O (stereo not shown) [^64Zne aspartate]"
value_kind = "visible growth"
val = "−"

[[record]]
molecule = "O=C([O-])CC(NCCNC(CC(=O)O)C(=O)O)C(=O)[O-].[64Zn+2] (stereo not shown)"
value_kind = "visible growth"
val = "−"

[[record]]
molecule = "O=S(=O)([O-])[O-].[64Zn+2] [^64Zne sulfate]"
value_kind = "visible growth"
val = "−"


###

System: E. coli ATCC 25922
Assay: MIC by serial dilutions in broth (visible growth);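 also: broth tubes inoculated to about 5×10^5 CFU/ml, incubated at 35 °C for 16-24 h, growth judged by transmitted light versus an untreated inoculum reference tube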
Type: cell-based
Details: ^64Zne 375 mcg/ml
Value Kind: visible growth

[[record]]
compound = "NC(CCC(=O)[O-])C(=O)[O-].[64Zn+2] (stereo not shown) [^64Zne glutamate]"
val = "−"

[[record]]
compound = "O=C([O-])CC(NCCNC(CC(=O)O)C(=O)O)C(=O)[O-].[64Zn+2] (stereo not shown)"
val = "−"

[[record]]
compound = "NC(CC(=O)O)C(=O)O (stereo not shown) [^64Zne aspartate]"
val = "−"

[[record]]
compound = "O=S(=O)([O-])[O-].[64Zn+2] [^64Zne sulfate]"
val = "−"


###

Each item that follows carries a reported MIC.
System: P. aeruginosa ATCC 27853
Test: MIC by serial dilutions in broth (visible growth)
Details: concentration of ^64Zne; Tables 1-5
Value Kind: MIC (µg/mL)

[[record]]
compound = "O=C([O-])CC(NCCNC(CC(=O)O)C(=O)O)C(=O)[O-].[64Zn+2] (stereo not shown)"
measurement_units = "µg/mL"
val = 1.465

[[record]]
compound = "O=S(=O)([O-])[O-].[64Zn+2] [^64Zne sulfate]"
measurement_units = "µg/mL"
val = 46.875

[[record]]
compound = "NC(CCC(=O)[O-])C(=O)[O-].[64Zn+2] (stereo not shown) [^64Zne glutamate]"
measurement_units = "µg/mL"
val = 0.183

[[record]]
compound = "O=C([O-])CC(O)(CC(=O)[O-])C(=O)[O-].O=C([O-])CC(O)(CC(=O)[O-])C(=O)[O-].[Zn+2].[Zn+2].[Zn+2] [^64Zne citrate]"
measurement_units = "µg/mL"
val = 14.062

